Taken from patent US5962480A.

system: hippocampus neurons; experiment: inhibition of reduction in survival rate of neurons, hippocampus (number of surviving cells); format: cell-based, rat; conditions: Rattus norvegicus, Neuron, 72 h; 10^-8 g/ml; control 100%; read-out: Inhibitory effect against reduction in survival rate of neurons (survival rate class)
parameter measured: viability at 0.01 µg/mL

compound: Cc1cc(=O)c(O)co1 [Compound (2), 3-Hydroxy-6-methyl-4H-pyran-4-one]
target: hippocampus neurons
recorded result: 90 to 110%

compound: Cc1cc(=O)c(O)c(C)o1 [Compound (3), 3-Hydroxy-2,6-dimethyl-4H-pyran-4-one]
target: hippocampus neurons
recorded result: 110 to 130%

compound: CCCCCc1oc(CO)cc(=O)c1O
target: hippocampus neurons
recorded result: 90 to 110%

compound: O=c1cc(C=Cc2ccccc2)occ1O [Compound (12), 3-Hydroxy-6-styryl-4H-pyran-4-one]
target: hippocampus neurons
recorded result: 90 to 110%

compound: Cc1cc(=O)c(O)c(CO)o1
target: hippocampus neurons
recorded result: 90 to 110%

###

assay: oral toxicity (LD50), mice; details: mouse, in vivo, read-out: 50% lethal death (LD50)
parameter measured: LD50

test smiles: CCCCCc1oc(C)c(OC)c(=O)c1O
recorded result: ≥ 1000 mg/kg
